Attribute: HEK-Blue activity, +100 nM BP, DF-1,000,000
- system: T1, human IL-18 binding protein (human, UniProt O95998 31-194); also: unit not given here
- T1 sequence (looked up): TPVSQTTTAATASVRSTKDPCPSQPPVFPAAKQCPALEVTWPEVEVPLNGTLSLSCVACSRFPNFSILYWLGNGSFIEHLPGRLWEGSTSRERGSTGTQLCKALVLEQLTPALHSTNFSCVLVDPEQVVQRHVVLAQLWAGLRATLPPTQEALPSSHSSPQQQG
- assay-name: cell-based or functional assay
property-label: HEK-Blue activity, +100 nM BP, DF-1,000,000

binder | endpoint-result
yeast display IL-18 variant L5W, I22M, K53N, S55Y, Q56H (ligand) YFGKWESKLSVIRNLNDQVLFMDQGNRPLFEDMTDSDMRDNAPRTIFIISMYNDYHPRGMAVTISVKSEKISTLSSENKIISFKEMNPPDNIKDTKSDIIFFQRSVPGHDNKMQFESSSYEGYFLASEKERDLFKLILKKEDELGDRSIMFTVQNED | 0.21
yeast display IL-18 variant T34I, S36V, D40I, N41M, K53G, S55Y (ligand) YFGKLESKLSVIRNLNDQVLFIDQGNRPLFEDMIDVDMRIMAPRTIFIISMYGDYQPRGMAVTISVKSEKISTLSSENKIISFKEMNPPDNIKDTKSDIIFFQRSVPGHDNKMQFESSSYEGYFLASEKERDLFKLILKKEDELGDRSIMFTVQNED | 0.09
yeast display IL-18 variant L5W, S7Y, K53H, S55M (ligand) YFGKWEYKLSVIRNLNDQVLFIDQGNRPLFEDMTDSDMRDNAPRTIFIISMYHDMQPRGMAVTISVKSEKISTLSSENKIISFKEMNPPDNIKDTKSDIIFFQRSVPGHDNKMQFESSSYEGYFLASEKERDLFKLILKKEDELGDRSIMFTVQNED | 0.13
